- TGT: KAT-8 (Homo sapiens (Human), UniProt Q9H7Z6)
- Sequence (Q9H7Z6 other isoform, or with tags, fused parts or gaps): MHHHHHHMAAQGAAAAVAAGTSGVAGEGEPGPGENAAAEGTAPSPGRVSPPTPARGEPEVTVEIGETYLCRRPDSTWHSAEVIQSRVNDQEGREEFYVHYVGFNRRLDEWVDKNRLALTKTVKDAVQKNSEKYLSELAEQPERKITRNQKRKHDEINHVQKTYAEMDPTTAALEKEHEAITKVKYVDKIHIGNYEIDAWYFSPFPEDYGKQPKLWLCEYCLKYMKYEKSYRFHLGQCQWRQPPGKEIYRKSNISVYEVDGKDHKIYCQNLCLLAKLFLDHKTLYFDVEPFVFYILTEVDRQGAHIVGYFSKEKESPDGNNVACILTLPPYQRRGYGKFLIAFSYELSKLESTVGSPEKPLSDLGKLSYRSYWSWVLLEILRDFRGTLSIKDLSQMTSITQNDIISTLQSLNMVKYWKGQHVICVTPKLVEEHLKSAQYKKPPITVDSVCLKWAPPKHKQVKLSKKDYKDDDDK
- ASSAY METHOD TEXT: KAT-8 biochemical inhibition assay (SAMDI mass spectrometry)
pIC50: −log10 of the molar value.
READOUT TYPE: pIC50

Check out these entries, answers already filled in.
Cn1cnc(-c2cc(Cl)c(F)c(C(=O)NNS(=O)(=O)CC3CCCNC3)c2)c1 (stereo not shown); < 4.00
CN(C(=O)C1CCC1)C1CCCC(CS(=O)(=O)NNC(=O)c2cc(-c3cn(C)cn3)cc(Cl)c2F)C1 (stereo not shown); 4.30 to 5.00
Cc1cc(-c2cn(CCO)cn2)cc(C(=O)NNS(=O)(=O)C2CCOCC2)c1F; < 4.00

Data request: Give its pIC50 value. Item: Cn1cnc(-c2cc(Cl)c(F)c(C(=O)NNS(=O)(=O)CC3CCCO3)c2)c1 (stereo not shown)
Data returned: 4.30 to 5.00

---

- TGT: KAT-7 (Homo sapiens (Human))
- Sequence (O95251 other isoform, or with tags, fused parts or gaps): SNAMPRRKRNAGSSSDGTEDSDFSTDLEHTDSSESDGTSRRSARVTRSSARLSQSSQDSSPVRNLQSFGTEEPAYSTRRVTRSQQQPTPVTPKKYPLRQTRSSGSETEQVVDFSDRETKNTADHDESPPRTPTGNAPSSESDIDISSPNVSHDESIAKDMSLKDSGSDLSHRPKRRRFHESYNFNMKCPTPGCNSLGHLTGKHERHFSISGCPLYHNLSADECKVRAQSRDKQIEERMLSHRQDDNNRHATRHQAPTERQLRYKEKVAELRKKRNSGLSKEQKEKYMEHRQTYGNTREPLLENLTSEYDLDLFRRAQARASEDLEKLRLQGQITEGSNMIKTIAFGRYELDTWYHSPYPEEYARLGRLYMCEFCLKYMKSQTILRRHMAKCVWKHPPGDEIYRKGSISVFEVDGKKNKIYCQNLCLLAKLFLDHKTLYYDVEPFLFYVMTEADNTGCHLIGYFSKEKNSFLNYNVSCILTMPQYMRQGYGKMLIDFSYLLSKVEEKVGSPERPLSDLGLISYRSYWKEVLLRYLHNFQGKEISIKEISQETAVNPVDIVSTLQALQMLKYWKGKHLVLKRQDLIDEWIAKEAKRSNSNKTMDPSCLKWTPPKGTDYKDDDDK
- ASSAY METHOD TEXT: KAT-7 biochemical inhibition assay (SAMDI mass spectrometry)
READOUT TYPE: IC50

Data request: Give its IC50 value. Item: Cn1cnc(-c2cc(Cl)c(F)c(C(=O)NNS(=O)(=O)C[C@H]3C[C@H](NC(=O)OC(C)(C)C)C3)c2)c1 [Compound I-124]
Data returned: < 10 µM

Data request: Give its IC50 value. Item: CCNC(=O)N1CCC(CS(=O)(=O)NNC(=O)c2cc(-c3cn(C)cn3)cc(Cl)c2F)C1 (stereo not drawn) [Compound I-64]
Data returned: < 10 µM

Data request: Give its IC50 value. Item: CNC(=S)N1CC[C@@H](CS(=O)(=O)NNC(=O)c2cc(-c3cn(C)cn3)cc(Cl)c2F)C1 [Compound I-183]
Data returned: < 10 µM

Data request: Give its IC50 value. Item: COCCc1nc(-c2cc(Cl)c(F)c(C(=O)NNS(=O)(=O)CC3CCCCC3)c2)cn1C [Compound I-192]
Data returned: < 10 µM

Data request: Give its IC50 value. Item: Cn1cnc(-c2cc(Cl)c(F)c(C(=O)NNS(=O)(=O)CC3CCC(OCCO)CC3)c2)c1 (stereo not drawn) [Compound I-467]
Data returned: < 10 µM

Data request: Give its IC50 value. Item: CC1CCNCC1CS(=O)(=O)NNC(=O)c1cc(-c2cn(C)cn2)cc(Cl)c1F (stereo not drawn) [Compound I-307]
Data returned: 10 to 50 µM

Data request: Give its IC50 value. Item: Cn1cnc(-c2cc(Cl)c(F)c(C(=O)NNS(=O)(=O)CC3CCN(C(N)=O)C3)c2)c1 (stereo not drawn) [Compound I-205]
Data returned: < 10 µM

Data request: Give its IC50 value. Item: COc1ccc(CNC(=O)N[C@H]2C[C@H](CS(=O)(=O)NNC(=O)c3cc(-c4cn(C)cn4)cc(Cl)c3F)C2)cc1 [Compound I-174]
Data returned: < 10 µM

---

- TGT: KAT-5 (Homo sapiens (Human), UniProt Q92993)
- Sequence (Q92993 other isoform, or with tags, fused parts or gaps): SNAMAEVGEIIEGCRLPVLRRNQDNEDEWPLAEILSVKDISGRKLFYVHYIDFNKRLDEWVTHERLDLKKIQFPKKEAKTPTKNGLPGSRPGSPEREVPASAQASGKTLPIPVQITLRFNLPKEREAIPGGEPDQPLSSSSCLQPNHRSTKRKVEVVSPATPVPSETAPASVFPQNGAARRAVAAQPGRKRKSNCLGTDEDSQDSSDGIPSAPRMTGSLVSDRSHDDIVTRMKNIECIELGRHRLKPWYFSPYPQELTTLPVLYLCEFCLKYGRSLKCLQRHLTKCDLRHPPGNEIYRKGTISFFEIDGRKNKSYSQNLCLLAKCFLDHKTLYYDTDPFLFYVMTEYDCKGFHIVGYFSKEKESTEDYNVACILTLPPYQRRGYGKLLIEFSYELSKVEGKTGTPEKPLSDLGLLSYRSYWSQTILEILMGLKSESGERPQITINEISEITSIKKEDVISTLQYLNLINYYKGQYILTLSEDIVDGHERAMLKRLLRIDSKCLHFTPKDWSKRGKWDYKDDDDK
- ASSAY METHOD TEXT: KAT-5 biochemical inhibition assay (SAMDI mass spectrometry)
pIC50: −log10 of the molar value.
READOUT TYPE: pIC50

Check out these entries, answers already filled in.
CC(C)C(=O)N[C@H]1CC[C@@H](CS(=O)(=O)NNC(=O)c2cc(-c3cn(C)cn3)cc(Cl)c2F)CC1 [Compound I-222]; > 5.00
CC(C)NC(=O)N1CC(CS(=O)(=O)NNC(=O)c2cc(-c3cn(C)cn3)cc(Cl)c2F)C1 [Compound I-204]; 4.30 to 5.00
COCCc1nc(-c2cc(Cl)c(F)c(C(=O)NNS(=O)(=O)C3CCOCC3)c2)cn1C [Compound I-119]; 4.30 to 5.00

Data request: Give its pIC50 value. Item: CC(C)S(=O)(=O)N1CCCC(CS(=O)(=O)NNC(=O)c2cc(-c3cn(C)cn3)cc(Cl)c2F)C1 (stereo not shown) [Compound I-98]
Data returned: > 5.00

---

Measured IC50 by item
- TGT: UniProt:Q92794
- Sequence (Q92794 other isoform, or with tags, fused parts or gaps): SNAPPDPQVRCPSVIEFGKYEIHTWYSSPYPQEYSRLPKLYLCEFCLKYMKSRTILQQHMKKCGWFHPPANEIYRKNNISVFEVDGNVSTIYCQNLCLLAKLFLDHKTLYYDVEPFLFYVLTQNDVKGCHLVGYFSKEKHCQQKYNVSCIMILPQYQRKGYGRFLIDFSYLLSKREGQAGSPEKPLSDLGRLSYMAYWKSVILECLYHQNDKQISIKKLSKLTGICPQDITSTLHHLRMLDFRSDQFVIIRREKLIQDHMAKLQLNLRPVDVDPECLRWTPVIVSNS
- ASSAY METHOD TEXT: KAT-6A biochemical inhibition assay (SAMDI mass spectrometry)

CNC(=O)N[C@H]1C[C@H](CS(=O)(=O)NNC(=O)c2cc(-c3cn(C)cn3)cc(Cl)c2F)C1 [Compound I-188]; 10 to 50 µM
Cn1cnc(-c2cc(Cl)c(F)c(C(=O)NNS(=O)(=O)c3ccc(F)cc3)c2)c1 [Compound I-316]; < 10 µM
CCNC(=O)N[C@H]1CC[C@@H](C(C)S(=O)(=O)NNC(=O)c2cc(-c3cn(C)cn3)cc(Cl)c2F)CC1 (stereo partly shown) [Compound I-454]; < 10 µM
Cn1cnc(-c2cc(Cl)c(F)c(C(=O)NNS(=O)(=O)CC3CCC(NC(=O)N4CCCC4)C3)c2)c1 (stereo not shown) [Compound I-346]; < 10 µM
COc1ccc(S(=O)(=O)NNC(=O)c2cc(-c3cn(C)cn3)cc(Cl)c2F)c(F)c1OCc1ccccc1 [Compound I-462]; 10 to 50 µM

Data request: Give its IC50 value. Item: Cc1ncn(-c2cc(Cl)c(F)c(C(=O)NNS(=O)(=O)C3CCOCC3)c2)n1 [Compound I-77]
Data returned: 10 to 50 µM

Data request: Give its IC50 value. Item: CNc1ccc(S(=O)(=O)NNC(=O)c2cc(-c3cn(C)cn3)cc(Cl)c2F)cc1 [Compound I-382]
Data returned: < 10 µM

---

- TGT: KAT-5 (Homo sapiens (Human), UniProt Q92993)
- ASSAY METHOD TEXT: KAT-5 biochemical inhibition assay (SAMDI mass spectrometry)
pIC50: −log10 of the molar value.
READOUT TYPE: pIC50

Cc1cc(-c2cncn2C)cc(C(=O)NNS(=O)(=O)C2CCCCC2)c1F; < 4.00

Data request: Give its pIC50 value. Item: Cn1cnc(-c2cc(Cl)c(F)c(C(=O)NNS(=O)(=O)CC3CCN(S(=O)(=O)C4CCC4)C3)c2)c1 (stereo not drawn)
Data returned: > 5.00

Data request: Give its pIC50 value. Item: CC(=O)NC1CCCC(CS(=O)(=O)NNC(=O)c2cc(-c3cn(C)cn3)cc(Cl)c2F)C1 (stereo not drawn)
Data returned: > 5.00

Data request: Give its pIC50 value. Item: CCNC(=O)N(C)[C@H]1CC[C@@H](CS(=O)(=O)NNC(=O)c2cc(-c3cn(C)cn3)cc(Cl)c2F)CC1
Data returned: > 5.00

Data request: Give its pIC50 value. Item: Cn1cnc(-c2cc(Cl)c(F)c(C(=O)NNS(=O)(=O)Cc3ccccc3)c2)c1
Data returned: > 5.00

---

- TGT: UniProt Q92794
- ASSAY METHOD TEXT: KAT-6A biochemical inhibition assay (SAMDI mass spectrometry)
READOUT TYPE: IC50

Check out these entries, answers already filled in.
CN[C@H]1CC[C@@H](CS(=O)(=O)NNC(=O)c2cc(-c3cn(C)cn3)cc(Cl)c2F)CC1; 10 to 50 µM
CCn1cnc(-c2cc(C)c(F)c(C(=O)NNS(=O)(=O)C3CCCCC3)c2)c1; 10 to 50 µM
CC([C@H]1CC[C@H](N)CC1)S(=O)(=O)NNC(=O)c1cc(-c2cn(C)cn2)cc(Cl)c1F (stereo partly drawn); > 100 µM
COc1cc(F)c(S(=O)(=O)NNC(=O)c2cc(-c3cn(C)cn3)cc(Cl)c2F)c(F)c1; < 10 µM
CN(C)C(=O)N(C)[C@H]1CC[C@H](CS(=O)(=O)NNC(=O)c2cc(-c3cn(C)cn3)cc(Cl)c2F)CC1; < 10 µM

From here, focus on the item given below.
Data request: Give its IC50 value. Item: CN(C)CCOc1cccc(S(=O)(=O)NNC(=O)c2cc(-c3cn(C)cn3)cc(Cl)c2F)c1
Data returned: < 10 µM

---

- TGT: UniProtKB Q92794
- ASSAY METHOD TEXT: KAT-6A biochemical inhibition assay (SAMDI mass spectrometry)
pIC50: −log10 of the molar value.
Measured pIC50 by item

Check out these entries, answers already filled in.
COc1ccc(S(=O)(=O)NNC(=O)c2cc(-c3cn(C)cn3)cc(Cl)c2F)cc1OCc1ccccc1; 4.30 to 5.00
Cn1cnc(-c2cc(Cl)c(F)c(C(=O)NNS(=O)(=O)C[C@H]3CC[C@H](NC(=O)Cc4ccccn4)CC3)c2)c1; > 5.00
Cn1cnc(-c2cc(Cl)c(F)c(C(=O)NNS(=O)(=O)C3CCOC3)c2)c1 (stereo not shown); 4.00 to 4.30

Data request: Give its pIC50 value. Item: CO[C@H]1CCCC[C@@H]1CS(=O)(=O)NNC(=O)c1cc(-c2cn(C)cn2)cc(Cl)c1F
Data returned: > 5.00

Data request: Give its pIC50 value. Item: Cc1ncn(C)c1-c1cc(Cl)c(F)c(C(=O)NNS(=O)(=O)CC2CCCCC2)c1
Data returned: < 4.00

Data request: Give its pIC50 value. Item: Cn1cnc(-c2cc(Cl)c(F)c(C(=O)NNS(=O)(=O)c3ccc(=O)[nH]c3)c2)c1
Data returned: > 5.00

Data request: Give its pIC50 value. Item: CCNC(=O)N1CC(CS(=O)(=O)NNC(=O)c2cc(-c3cn(C)cn3)cc(Cl)c2F)C1
Data returned: 4.30 to 5.00
